tested on: Staphylococcus aureus; experiment: Antimicrobial activity against Staphylococcus aureus MTCC 96 after 24 hr by serial broth dilution method; format: functional; details: MTCC 96, 24 h
For each entry below, report its MIC value.
Number only, in µg/mL; omit the unit.

Look at this compound and give its reported MIC. Cc1ccn2c(CN(C)C)c(-c3cccc(Br)c3F)nc2c1
250

Look at this compound and give its reported MIC. Cc1ccn2c(CN(C)C)c(-c3c(F)cccc3F)nc2c1
250

Look at this compound and give its reported MIC. CC1(C)S[C@@H]2[C@H](NC(=O)[C@H](N)c3ccccc3)C(=O)N2[C@H]1C(=O)O
250

Look at this compound and give its reported MIC. Cc1ccn2c(CN(C)C)c(-c3ccccc3Br)nc2c1
500

Look at this compound and give its reported MIC. Cc1ccn2c(CN(C)C)c(-c3ccc(F)c(Cl)c3)nc2c1
50

Look at this compound and give its reported MIC. Cc1ccn2c(CN(C)C)c(-c3ccccc3O)nc2c1
500

Look at this compound and give its reported MIC. Cc1ccn2c(CN(C)C)c(-c3ccc([N+](=O)[O-])cc3Br)nc2c1
500

Look at this compound and give its reported MIC. Cc1ccn2c(CN(C)C)c(-c3ccc(O)c([N+](=O)[O-])c3)nc2c1
500

Look at this compound and give its reported MIC. Cc1ccn2c(CN(C)C)c(-c3cc([N+](=O)[O-])c(O)cc3O)nc2c1
500

Look at this compound and give its reported MIC. Cc1ccn2c(CN(C)C)c(-c3cccc(F)c3F)nc2c1
500

Look at this compound and give its reported MIC. Cc1ccn2c(CN(C)C)c(-c3ccc(F)cc3F)nc2c1
50

Look at this compound and give its reported MIC. Cc1ccn2c(CN(C)C)c(-c3cccc(Cl)c3)nc2c1
100

Look at this compound and give its reported MIC. Cc1ccn2c(CN(C)C)c(-c3ccc(O)cc3O)nc2c1
500

src = ChEMBL document CHEMBL3046310
